Recorded values, source ChEMBL document CHEMBL5653605.

MEASURED_TARGET: Serine/threonine-protein kinase mTOR (Homo sapiens)
ASSAY_SUMMARY: Inhibition of mTOR (unknown origin)
ENDPOINT_LABEL: IC50
Give your result as the value with the unit written after it.

[
  {
    "CHEMICAL_SMILES": "Nc1nccn2c1c(-c1cc3cccc(Cl)c3[nH]1)nc2[C@H]1CC[C@H](C(=O)O)CC1",
    "IC50": "11 nM"
  }
]

Now, please, on to the next molecule.
[in] Output IC50 of COc1cccc2cc(-c3nc([C@H]4CC[C@H](C(=O)O)CC4)n4ncnc(N)c34)[nH]c12
[out] 4 nM

----------
ASSAY_SUMMARY: Drug concentration in nu/nu CD-1 mouse plasma xenografted with human GEO cells at 75 mg/kg administered for 14 days and measured 1 hr post last dose
Assay type: ADME, organism-based
ENDPOINT_LABEL: concentration at 337 h (µM)
The reply should be a number in µM, with the unit left off.

[in] Output concentration at 337 h of Nc1nccn2c1c(-c1cc3cccc(Cl)c3[nH]1)nc2[C@H]1CC[C@H](C(=O)O)CC1
[out] 25.6
